Experiment: MRT in Sprague-Dawley rat at 2 mg/kg, iv measured upto 24 hrs by LC-MS/MS analysis
Type: ADME, organism-based
Settings: in vivo
measure: MRT (h)

given smiles | assay value
COc1ccc(-c2nc(-c3ccccc3O)n(-c3ccc(S(N)(=O)=O)cc3)n2)c(O)c1 | 2.37

----------
Test system: PC-12
Test: Cytoprotective activity against SNP-induced cell death in rat PC-12 cells assessed as increase in cell viability at 10 uM incubated for 1 hr followed by SNP stimulation and measured after 24 hrs by MTT assay
Format: functional
Details: time 25.0 hrs
Calls of active or inactive are those of the source. No cut-off for these calls is given here.
Labels: active, inactive

given smiles | system name | category label
NS(=O)(=O)c1ccc(-n2nc(-c3ccc(C(F)(F)F)cc3O)nc2-c2ccccc2O)cc1 | PC-12 | active
NS(=O)(=O)c1ccc(-n2nc(-c3ccc(Cl)cc3O)nc2-c2ccccc2O)cc1 | PC-12 | active
NS(=O)(=O)c1ccc(-n2nc(-c3ccc(F)cc3)nc2-c2ccccc2O)cc1 | PC-12 | inactive
Cc1ccc(-c2nc(-c3ccccc3O)n(-c3ccc(S(N)(=O)=O)cc3)n2)c(O)c1 | PC-12 | active
NS(=O)(=O)c1ccc(-n2nc(-c3ccc(C(F)(F)F)cc3)nc2-c2ccccc2O)cc1 | PC-12 | inactive
NS(=O)(=O)c1ccc(-n2nc(-c3ccc(C(F)(F)F)cc3O)nc2-c2ccc(C(F)(F)F)cc2O)cc1 | PC-12 | inactive
Cc1ccc(-c2nc(-c3ccc(C)cc3O)n(-c3ccc(S(N)(=O)=O)cc3)n2)c(O)c1 | PC-12 | inactive
NS(=O)(=O)c1ccc(-n2nc(-c3ccc([N+](=O)[O-])cc3)nc2-c2ccccc2O)cc1 | PC-12 | inactive
NS(=O)(=O)c1ccc(-n2nc(-c3ccc(F)cc3O)nc2-c2ccccc2O)cc1 | PC-12 | active
NS(=O)(=O)c1ccc(-n2nc(-c3ccccc3)nc2-c2ccccc2O)cc1 | PC-12 | inactive
NS(=O)(=O)c1ccc(-n2nc(-c3ccc(F)cc3O)nc2-c2ccc(F)cc2O)cc1 | PC-12 | inactive
NS(=O)(=O)c1ccc(-n2nc(-c3ccccc3O)nc2-c2ccccc2O)cc1 | PC-12 | active
NS(=O)(=O)c1ccc(-n2nc(-c3ccc([N+](=O)[O-])cc3O)nc2-c2ccccc2O)cc1 | PC-12 | active
